Property: OD (A492); scope: individual binders
# target: T1, HCV Core1-169 (HCV-1, UniProt P26664 1-169)
# T1 construct: also called recombinant HCV core antigen
# T1 sequence: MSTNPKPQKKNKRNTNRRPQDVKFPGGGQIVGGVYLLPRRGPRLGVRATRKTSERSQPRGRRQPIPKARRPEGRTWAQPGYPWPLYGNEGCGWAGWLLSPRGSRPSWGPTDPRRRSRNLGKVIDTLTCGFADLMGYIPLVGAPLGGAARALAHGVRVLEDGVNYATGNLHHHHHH
# procedureDetails: EIA, core1-169 coated on plate; note: test concentration or dose not given here
Entry rule: numbers only, all in OD.

binder	unit	OD (A492)
HCV 208A-877 (antibody, V domains shown) VH: QLQQSGPELVKPGASVKISCKTSGYTFTENAMHWVKQSRGKSLEWIGGVNPNNGDTVYTQKFKGKATLTVAKSSSTAYMELRTMTCEESTVYYCASREPDFFDYWGQGSSVTVSS VL: QIVLTQSPAIMSVSPGEKVSMTCSASSSVTYMHWYQQKSGTSPKRWIYDTSELASGVPARFSGSGSGTTYSLTISSMEAEDAATYYCQQWSNKPLTFGAGTKLELKR	OD	0.9

Query: OD (A492); subject: HCV 208B-547 (antibody, V domains shown) VH: QVQLQQSGAELAKPGASVKMSCKASGYTFTSNKMHWAKQRPGQGLEWIGYIDPSSGYTEYNQKIKDKATLTADKSSSTAYMQLSSLTSEDSAVYYCTNFAYWGQGTLVTVSA VL: EVVLTQSPAITAASLGQKVTITCRASSSVSYMHWYRQKSGTSPQPWIYEISTLASGVPTRFRASGSGTSYSLTISSMEAEDAAIYYCQQWNYPLTFGAGTKLELKR
0.46

Query: OD (A492); subject: HCV 208A-134 (antibody, V domains shown) VH: QGQMQQSGAELAKPGASVKLSCKTSGFTFSSSYISWLKQKPGQSLEWIAWIYAGTGNTNYNQKFTDKAQLTVDTSSSTAYMQLSSLTTEDSAIYYCAISGTGFTYWGQGTLVTVSA VL: EVLMTQSPLSLPVSLGDQASISCRSSQSLEHTNGNTYLEWFLQRPGQPPKLLIYKVSSRFSGVPDRFSGSGSGTDFTLKISRVEAEDLGVYYCFQGSHVPFTFGSGTKLAIKR
0.1

Query: OD (A492); subject: HCV 208A-692 (antibody, V domains shown) VH: QGQMQQSGAELAKPGASVKLSCKTSGFTFSSSYISWLKQKPGQSLEWIAWIFAGTGNTNYNQKFTDKAQLTVDTSSSTAYMQLSSLTTEDSAIYYCAISGTGFTYWGQGTLVTVSA VL: EVLMTQSPLSLPVSLGDQASISCRSSQSLEHSNGNTYLEWFLQRPGQPPKLLIYKVSSRFSGVPDRFSGSGSGTDFTLKISRVEAEDLGVYYCFQGSHVPFTFGSGTKLAIKR
0.07

Query: OD (A492); subject: HCV 208B-1094 (antibody, V domains shown) VH: EVQLQQSGPELVKPGASVKISCKTSGYTFTEYAMHWMKQSHGKSLEWIGGINPTNGDTIYNQRFKDKAKLTVDRSSSTAYMELRSLTSDDSALFYCARRELDYFASWGQGTTLTVSS VL: DIVLTQSPASLIVSLGQTATISCRASQSLSTSRFSYVHWIQQKPGQPPKLLIKYASNLESGVPVRFSGSGSGTDFTLNIHPVEEEDTATYFCQHSWEFPFTFGSGTKLKIKR
0.9
